The origin of these recorded values is the kinase profiling compilation of Christmann-Franck et al. (2016).

target: SYK (human); experiment: radiometric filter-binding kinase assay, Kinase HotSpot; conditions: compound 0.5 µM; ATP 10 µM
recordedEndpoint: residual activity (%)
Numeric only. Scale: %

>>> quantitativeresult("O=C1Cc2c([nH]c3ccc([N+](=O)[O-])cc23)-c2ccccc2N1")
53.9
>>> quantitativeresult("Clc1ccc(Nc2nnc(Cc3ccncc3)c3ccccc23)cc1")
114

Exam item: Quick one: residual activity of COc1cc2nccc(Oc3ccc(NC(=S)NC(=O)c4ccccc4C)cc3)c2cc1OC ?
Marked response: 95.5

Exam item: Tell me the measured residual activity of Cc1cc2ncc(-c3ccccc3)nc2cc1C , please.
Marked response: 97.4

Exam item: What does the record list as residual activity for O=c1cc(-c2cccc3c2Sc2ccccc2S3)oc(N2CCOCC2)c1 ?
Marked response: 106

Exam item: // returns reported residual activity for input COc1ccc(-c2cnc3c(-c4ccsc4)cnn3c2)cc1
Marked response: 101

Exam item: Sample CCCNC(=O)Nc1ccc(Oc2ncnc3cc(OC)c(OC)cc23)cc1Cl — what was its residual activity?
Marked response: 97.5

Exam item: Quick one: residual activity for Cc1ccc(NC(=O)c2ccc(CN3CCN(C)CC3)cc2)cc1Nc1nc(-c2cccnc2)cs1 ?
Marked response: 101

Exam item: Need residual activity of CCN1/C(=C/C(C)=O)Sc2ccc(OC)cc21 , thanks.
Marked response: 94.8

Exam item: Would you mind telling me what residual activity value was observed for O=C1Nc2ccccc2/C1=C\c1c(Cl)[nH]c2ccccc12 ?
Marked response: 102

Exam item: For the compound shown here, Nc1n[nH]c2nnc(-c3c(-c4ccccc4)nn4ccccc34)cc12 , give the reported residual activity.
Marked response: 97.4

====

molecular target: AKT3 (human) (UniProt Q9Y243); experiment: radiometric filter-binding kinase assay, Kinase HotSpot; conditions: compound 0.5 µM; ATP 10 µM
Sequence (Q9Y243 whole entry, looked up): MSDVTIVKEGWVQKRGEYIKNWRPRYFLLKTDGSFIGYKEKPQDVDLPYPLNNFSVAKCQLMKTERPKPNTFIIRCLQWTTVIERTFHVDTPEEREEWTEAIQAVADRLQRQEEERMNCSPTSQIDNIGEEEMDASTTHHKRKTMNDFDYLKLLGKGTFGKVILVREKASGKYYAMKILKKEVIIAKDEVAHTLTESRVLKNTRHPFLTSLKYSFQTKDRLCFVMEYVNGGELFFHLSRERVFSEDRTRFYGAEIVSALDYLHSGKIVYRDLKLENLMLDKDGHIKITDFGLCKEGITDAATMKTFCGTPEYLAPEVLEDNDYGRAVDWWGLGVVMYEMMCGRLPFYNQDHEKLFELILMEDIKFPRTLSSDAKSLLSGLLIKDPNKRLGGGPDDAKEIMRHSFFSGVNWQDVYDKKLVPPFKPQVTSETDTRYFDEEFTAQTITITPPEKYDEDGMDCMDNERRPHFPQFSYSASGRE
Label yes for high-side residual activity (at or above 90%) and no for low-side residual activity (below it).

Exam item: Determine whether measured residual activity meets or exceeds 90% for O=C1Nc2ccccc2/C1=C\c1c(Cl)[nH]c2ccccc12
Marked response: yes

Exam item: Given Nc1n[nH]c2nnc(-c3c(-c4ccccc4)nn4ccccc34)cc12 , state whether its residual activity is at least 90%.
Marked response: yes

Exam item: Confirm if residual activity reported for the molecule CC(C)[C@H](CO)Nc1nc(Nc2cccc(Cl)c2)c2ncn(C(C)C)c2n1 is 90% or above.
Marked response: yes

Exam item: Hello, I need to know if NC(=O)c1ccc(N(C(N)=O)c2c(F)cccc2F)nc1-c1ccc(F)cc1F has measured residual activity not below 90%. Thanks!
Marked response: no

====

As shown below, each of these molecules has a reported residual activity value.
test system: ARAF (human), P10398 [Y301D/Y302D]; assay: radiometric filter-binding kinase assay, Kinase HotSpot; settings: compound 0.5 µM; ATP 10 µM
Sequence (P10398 whole entry Y301D/Y302D, looked up): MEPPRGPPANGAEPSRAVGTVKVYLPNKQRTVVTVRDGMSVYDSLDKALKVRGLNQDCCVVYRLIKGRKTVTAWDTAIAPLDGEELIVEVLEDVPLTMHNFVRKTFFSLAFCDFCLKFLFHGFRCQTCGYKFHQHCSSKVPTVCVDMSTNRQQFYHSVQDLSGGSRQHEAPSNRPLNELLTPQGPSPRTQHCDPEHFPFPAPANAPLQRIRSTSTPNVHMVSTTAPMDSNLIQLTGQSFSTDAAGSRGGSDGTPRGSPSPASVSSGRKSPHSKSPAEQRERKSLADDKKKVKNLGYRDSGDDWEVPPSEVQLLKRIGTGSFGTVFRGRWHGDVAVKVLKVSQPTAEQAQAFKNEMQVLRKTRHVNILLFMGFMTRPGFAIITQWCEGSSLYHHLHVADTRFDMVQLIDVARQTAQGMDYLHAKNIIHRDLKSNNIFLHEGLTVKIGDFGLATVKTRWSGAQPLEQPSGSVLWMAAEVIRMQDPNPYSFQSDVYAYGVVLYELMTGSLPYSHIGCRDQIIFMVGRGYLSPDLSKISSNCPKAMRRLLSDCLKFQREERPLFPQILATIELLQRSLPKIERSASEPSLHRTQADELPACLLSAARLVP
Express the result in % but write the number alone.

Previously resolved entries follow.
>>> quantitativeresult("CCN1/C(=C/C(C)=O)Sc2ccc(OC)cc21")
128
>>> quantitativeresult("O=C1C(Cl)=C(N2C(=O)CCC2=O)C(=O)c2ccccc21")
105
>>> quantitativeresult("Cn1sc(=O)n(Cc2ccccc2)c1=O")
94.6
>>> quantitativeresult("Nc1ncnc2c1c(-c1ccc(Oc3ccccc3)cc1)cn2C1CCCC1")
53
>>> quantitativeresult("CS(=O)c1ccc(-c2nc(-c3ccc(F)cc3)c(-c3ccncc3)[nH]2)cc1 (stereo not drawn)")
42.7

Exam item: Recorded residual activity of CCOC(=O)c1c(C)[nH]c(/C=C2\C(=O)Nc3ccccc32)c1C , please.
Marked response: 94.7

Exam item: # lookup: residual activity of COc1cc2c(cc1OC)-c1[nH]nc(Nc3cccc(F)c3)c1C2
Marked response: 98.9

Exam item: Suppose we examine the molecule O=C1NC(=O)c2cc(Nc3ccc(F)cc3)c(Nc3ccc(F)cc3)cc21 ; what residual activity value has been reported?
Marked response: 90.7

Exam item: // returns reported residual activity for input COc1ccc(COc2ccc(Cc3cnc(N)nc3N)cc2OC)cc1
Marked response: 96.6

Exam item: I am curious: what residual activity value has been reported for Nc1nnc2[nH]c3ccccc3nc1-2 ?
Marked response: 119

Exam item: Quick one: residual activity of COc1ccc(Cl)cc1NC(=O)Nc1cc(C)nc2ccccc12 ?
Marked response: 92.4

Exam item: What value of residual activity has been reported for the following molecule? CC[n+]1c(/C=C/N(C)c2ccccc2)n(-c2ccccc2)c2ccc(-c3nc4ccccc4s3)cc21
Marked response: 102

Exam item: // residual activity lookup, key: c1ccc(-c2n[nH]c3c2oc2ccccc23)cc1
Marked response: 93.8

Exam item: # query: residual activity of entry CC(C)n1cnc2c(Nc3cccc(Cl)c3)nc(NCCO)nc21
Marked response: 107

Exam item: Give the measured residual activity of COc1ccc2c(c1)/C(=C/c1cnc[nH]1)C(O)=N2 .
Marked response: 111

Exam item: What value of residual activity has been recorded for this entry: CN(C)c1ccc(/C=C2\C(=O)Nc3ccccc32)cc1
Marked response: 94.3

Exam item: May I ask what residual activity has been recorded for CCn1cnc2c(Nc3cccc(Cl)c3)nc(N[C@@H]3CCCC[C@@H]3N)nc21 ?
Marked response: 116

Exam item: If you can, please state the reported residual activity value of Cc1[nH]c(/C=C2\C(=O)Nc3ccc(S(=O)(=O)N(C)c4cccc(Cl)c4)cc32)c(C)c1C(=O)N1CCN(C)CC1 .
Marked response: 120

Exam item: Any idea what its residual activity is? The molecule is Nc1n[nH]c2nnc(-c3c(-c4ccccc4)nn4ccccc34)cc12
Marked response: 98.4

Exam item: Bench note: what residual activity did COc1cc2ncnc(Nc3cccc(Cl)c3)c2cc1OC show?
Marked response: 108

Exam item: Could you tell me which residual activity is on file for COc1ccc(CNC(=O)Nc2ncc([N+](=O)[O-])s2)cc1 ?
Marked response: 91

Exam item: // residual activity lookup, key: CC(C)[C@H](CO)Nc1nc(Nc2cccc(Cl)c2)c2ncn(C(C)C)c2n1
Marked response: 96.5

Exam item: Need residual activity of O=C1NC(=O)/C(=C\c2ccc3nccnc3c2)S1 , thanks.
Marked response: 103

====

target: ZAP70 (human) (UniProt P43403); assay: radiometric filter-binding kinase assay, Kinase HotSpot; details: compound 0.5 µM; ATP 10 µM
Sequence (P43403 whole entry, looked up): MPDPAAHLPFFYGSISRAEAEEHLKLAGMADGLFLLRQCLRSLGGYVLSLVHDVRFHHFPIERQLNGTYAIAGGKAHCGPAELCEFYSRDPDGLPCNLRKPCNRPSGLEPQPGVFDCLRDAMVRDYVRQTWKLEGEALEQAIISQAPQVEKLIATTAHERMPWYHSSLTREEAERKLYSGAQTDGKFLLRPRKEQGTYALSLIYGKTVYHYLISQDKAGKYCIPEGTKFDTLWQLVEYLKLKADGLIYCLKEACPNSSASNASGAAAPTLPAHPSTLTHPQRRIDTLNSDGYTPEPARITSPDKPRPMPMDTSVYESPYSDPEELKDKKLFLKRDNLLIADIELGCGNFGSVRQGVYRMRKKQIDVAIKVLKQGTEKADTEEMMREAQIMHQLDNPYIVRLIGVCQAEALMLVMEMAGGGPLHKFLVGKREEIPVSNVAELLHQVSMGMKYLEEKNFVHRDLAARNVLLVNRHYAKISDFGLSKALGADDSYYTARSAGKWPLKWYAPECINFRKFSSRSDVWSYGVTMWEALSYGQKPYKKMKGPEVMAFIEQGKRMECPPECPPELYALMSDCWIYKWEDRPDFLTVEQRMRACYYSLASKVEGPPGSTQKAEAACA
Below, each of the compounds is paired with its reported residual activity value.
Report as a plain number; the unit % is understood.

Here are 3 compounds together with their reported answers.
>>> quantitativeresult("Nc1nc(Nc2ccc(S(N)(=O)=O)cc2)nn1C(=S)Nc1c(F)cccc1F")
86.9
>>> quantitativeresult("COc1cc2ncnc(Nc3ccc(F)c(Cl)c3)c2cc1OCCCN1CCOCC1")
96.5
>>> quantitativeresult("CCN1/C(=C/C(C)=O)Sc2ccc(OC)cc21")
103

Now for a further compound.
Exam item: Any idea what residual activity was measured for O=C1Nc2cc(Br)ccc2/C1=C1/Nc2ccccc2/C1=N\O ?
Marked response: 107

====

# key: entry, value: residual activity
target: EPHA5 (human); experiment: radiometric filter-binding kinase assay, Kinase HotSpot; settings: compound 0.5 µM; ATP 10 µM
Could you give me the number in %? Just the number is fine.

Below, each entry is followed by its recorded residual activity result.
>>> quantitativeresult("Nc1n[nH]c2nnc(-c3c(-c4ccccc4)nn4ccccc34)cc12")
101
>>> quantitativeresult("CC(C)[C@H](CO)Nc1nc(Nc2cccc(Cl)c2)c2ncn(C(C)C)c2n1")
87.9
>>> quantitativeresult("Nc1nc(Nc2ccc(S(N)(=O)=O)cc2)nn1C(=S)Nc1c(F)cccc1F")
56.7

Exam item: residual activity for C#Cc1cccc(Nc2ncnc3cc(OCCOC)c(OCCOC)cc23)c1 ?
Marked response: 99.1

Exam item: Need residual activity, item Cc1cc2ncc(-c3ccccc3)nc2cc1C
Marked response: 96.1

Exam item: Name the reported residual activity value associated with the compound CS(=O)c1ccc(-c2nc(-c3ccc(F)cc3)c(-c3ccncc3)[nH]2)cc1 (stereo unspecified)
Marked response: 89.5

====

molecular target: PDPK1 (human); assay: radiometric filter-binding kinase assay, Kinase HotSpot; details: compound 0.5 µM; ATP 10 µM
recordedEndpoint: residual activity (%)
Lab book: enter the figure in %, no units written.

Example results:
>>> quantitativeresult("C#Cc1cccc(Nc2ncnc3cc(OCCOC)c(OCCOC)cc23)c1")
83.8
>>> quantitativeresult("CCCNC(=O)Nc1ccc(Oc2ncnc3cc(OC)c(OC)cc23)cc1Cl")
86.8
>>> quantitativeresult("O=c1cc(-c2cccc3c2Sc2ccccc2S3)oc(N2CCOCC2)c1")
104
>>> quantitativeresult("NC(=O)c1ccc(N(C(N)=O)c2c(F)cccc2F)nc1-c1ccc(F)cc1F")
87.4

Exam item: Recall the recorded residual activity for O=C1Cc2c([nH]c3ccc([N+](=O)[O-])cc23)-c2ccccc2N1 with PDPK1 (human) and state it.
Marked response: 93.7

Exam item: Find the measured residual activity: item CC(C)(C)c1nc2c3ccc(F)cc3c3c(=O)[nH]ccc3c2[nH]1 , target or system PDPK1 (human).
Marked response: 27

Exam item: Give the reported residual activity for O=C(Nc1ccc(Cl)cc1)c1ccccc1NCc1ccncc1 (system: PDPK1 (human)).
Marked response: 95.3

Exam item: Kindly state the measured residual activity obtained for O=C1Nc2cc(Br)ccc2/C1=C1/Nc2ccccc2/C1=N\O with PDPK1 (human).
Marked response: 86.4

Exam item: I'm curious: which residual activity was measured for Cc1cc2ncc(-c3ccccc3)nc2cc1C tested on PDPK1 (human)?
Marked response: 103

Exam item: Lab request: please report residual activity under test system PDPK1 (human) for COc1cc2nccc(Oc3ccc(NC(=S)NC(=O)c4ccccc4C)cc3)c2cc1OC
Marked response: 105

Exam item: What reported residual activity corresponds to CS(=O)c1ccc(-c2nc(-c3ccc(F)cc3)c(-c3ccncc3)[nH]2)cc1 (configuration not stated) on PDPK1 (human)?
Marked response: 96.3
